Sourced from patent US20250034594A1

Tested on: gene editing with dCas9
Assay: Screen of 322 new SSAP proteins, gene editing activity with dCas9 (Table 5)
Type: cell-based
Settings: normalized
Excerpt: 322 new SSAP proteins were identified from sequence data, synthesized, and screened for activity with Cas9 and dCas9. Gene editing activities are shown below in Table 5, followed by amino acid sequences of the proteins.

# molecule, dCas9 with SSAP activity (normalized)
data = [
    ("SSAP_4: SEQ ID NO: 166 (protein, Lambda) MSTALATLAGKLAERVGMDSVDPQELITTLRQTAFKGDASDAQFIALLIVANQYGLNPWTKEIYAFPDKQNGIVPVVGVDGWSRIINENQQFDGMDFEQDNESCTCRIYRKDRNHPICVTEWMDECRREPFKTREGREITGPWQSHPKRMLRHKAMIQCARLAFGFAGIYDKDEAERIVENTAYTAERQPERDITPVNDETMQEINTLLIALDKTWDDDLLPLCSQIFRRDIRASSELTQAEAVKALGFLKQKAAEQKVAA", "−1.447"),
    ("SSAP_96: SEQ ID NO: 265; Plesiomonas shigelloides (protein, Plesiomonas shigelloides) SNQRPPIATADLQKAQSQPPAAKPEQNLINFINQPSMKSQIAAALPRHMAPERMIRIITTEIRKTPKLATCDVQSFIGAVVQCSQLGLEPGGGLGHAYLLPFGNGKAESGKPNVQLIIGYRGMIDLARRSGQIVSISSRIVREGDQFHYEYGLNETLKHVPGDNESAPITHVYAVAKLKDGGTQFEVMSFNEIEKIRGQSKAGNDGPWIKHWEEMAKKTVIRRLFKYLPVSIEMQRAVILDEKAEADIEQDNASIIGAEYSVVENAA", "−1.995"),
]
